Values compiled from patent US20250361288A1.

SYSTEM TESTED: T1, human HVEM extracellular domain fused with an Fc fragment at the C-terminus (human, UniProt Q92956 39-202)
T1 construct: extracellular domain; Bought; also called hHVEM; not shown: Fc fragment at the C-terminus
T1 sequence (looked up): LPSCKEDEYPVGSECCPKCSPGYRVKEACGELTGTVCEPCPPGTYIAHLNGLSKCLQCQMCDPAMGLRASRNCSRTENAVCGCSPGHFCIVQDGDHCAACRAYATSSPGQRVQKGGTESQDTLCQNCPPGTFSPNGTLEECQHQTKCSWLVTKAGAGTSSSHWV
MEASUREMENT NOTES: ELISA on coated target-Fc
Experimental: Nunc MaxiSorp 96-well plates (Thermofisher) were coated with target proteins (1 μg/ml), and then blocked with 2% BSA-PBS buffer for one hour. Serial dilutions of the LIGHT muteins were added with a maximum concentration of 200 ng/ml. […] The plates were read at 450 nm on a SpectraMax M5 microplate reader (Molecule Devices). The ELISA results were analyzed using GraphPad Prism 9.0 software and the EC50s (half maximal effective concentration) were summarized in Table 5-1 and Table 5-2.
PARAMETER: EC50 (µg/mL)
Field: numeric (µg/mL). Do not append units.

LIGHT-29 (ligand, Printed mutations: S160N, L220S; Soluble protein carries an N-terminal His tag) DGPAGSWEQLIQERRSHEVNPAAHLTGANSSLTGSGGPLLWETQLGLAFLRGLSYHDGALVVTKAGYYYIYSKVQLGGVGCPLGLANTITHGLYKRTPRYPEELELLVSQQSPCGRATSSSRVWWDSSFLGGVVHLEAGEKVVVRVSDERLVRLRDGTRSYFGAFMV
0.0428
LIGHT-19 (ligand, Soluble protein carries an N-terminal His tag) DGPAGSWEQLIQERRSHEVNPAAHLTGANSSLTGSGGPLLWETQLGLAFLRGLSYHDGALVVSKAGYYYIYSKVQLGGVGCPPGLAGTITHGLYKRTPRYPEELELLVSQQSPCGRATSSSRVWWDSSFLGGVVHLEAGEKVVVRVMDERLVRLRDGTRSYFGAFMV
0.0681

Let us move to another entry and its EC50.
**Query** Given the entry LIGHT-25 (ligand, Printed mutations: S160H, L220S; Soluble protein carries an N-terminal His tag) DGPAGSWEQLIQERRSHEVNPAAHLTGANSSLTGSGGPLLWETQLGLAFLRGLSYHDGALVVTKAGYYYIYSKVQLGGVGCPLGLAHTITHGLYKRTPRYPEELELLVSQQSPCGRATSSSRVWWDSSFLGGVVHLEAGEKVVVRVSDERLVRLRDGTRSYFGAFMV , report its measured EC50.
**Result** 0.0542
